# test-name: Measurement of LogP values by HPLC on reversed phase columns (EEC directive 79/831 Annex V.A8)
# Assay type: physicochemical
Marks after values point to notes of the source that are not given here.
Listed here are molecules together with their documented LogP.

The following molecules have reported results that may help.
> print(dat)
                                   molecule  property  observed
1  COc1ccc(CNc2nsc(C(=O)N(C3CC3)C(C)c3ccccc3C(F)(F)F)c2Cl)cc1 (stereo not shown) [I-949]      LogP   4.83[a]
2  N#Cc1ccc(CNC(=O)c2snc(NC(=O)C(F)(F)F)c2Cl)cc1 [I-812]      LogP   2.12[a]
3  Cc1c(N)nsc1C(=O)NCc1ccc(C(F)(F)F)cc1F [I-104]      LogP   2.18[a]
4   Nc1nsc(C(=O)NCc2cc(F)ccc2F)c1Cl [I-015]      LogP   1.88[a]
5  CCc1cccc(C)c1CN(C(=O)c1snc(NCc2ccc(OC)cc2)c1Cl)C1CC1 [I-898]      LogP   5.17[a]

Query :: Give the reported value of LogP for this record: Nc1nsc(C(=O)N(Cc2ccc(Cl)cc2Cl)CC2CC2)c1Cl [I-212]
Result :: 3.74[a]

Query :: Report measured LogP; entry is CC1CCCC(C)(C)C1CN(C(=O)c1snc(N)c1Cl)C1CC1 (stereo not shown) [I-081]
Result :: 4.08[a]

Query :: Entry Nc1nsc(C(=O)NCc2ccc(F)cc2)c1Cl [I-025] needs its LogP filled in; supply it.
Result :: 1.83[a]

Query :: Give LogP for Cc1ccc(F)cc1CNC(=O)c1snc(N)c1Cl [I-127]
Result :: 2.08[a]

Query :: Look up and report measured LogP for this entry: Nc1nsc(C(=O)NCC2CCCCC2)c1Br [I-539]
Result :: 2.51[a]
